All figures here come from patent US20260085053A1.

Listed below: IC50 values for each entry.
- Target Or Test System: SIK3 kinase (aa59-365, Thermo Fisher) (Homo sapiens)
- Construct: SIK3 kinase (aa59-365, Thermo Fisher); purchased Thermo Fisher
- Sequence (Q9Y2K2 59-365): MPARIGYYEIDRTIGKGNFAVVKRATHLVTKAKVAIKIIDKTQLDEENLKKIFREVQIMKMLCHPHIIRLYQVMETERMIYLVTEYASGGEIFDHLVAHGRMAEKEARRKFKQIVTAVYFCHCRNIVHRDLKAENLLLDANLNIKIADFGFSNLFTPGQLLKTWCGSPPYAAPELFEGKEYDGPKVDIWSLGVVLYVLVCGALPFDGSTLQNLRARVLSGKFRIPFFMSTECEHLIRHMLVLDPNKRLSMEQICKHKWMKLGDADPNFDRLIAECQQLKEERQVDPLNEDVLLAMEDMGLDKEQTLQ
- Assay Info: Biochemical activities determination for SIK3 protein (TR-FRET)
- Test Parameters: 125 uM ATP, 0.5 μM STK1 substrate

Answered cases to consult:
>  <Smiles Structure>
O=C(NC1CC1)c1c(OC(F)F)cc(-c2coc3cc(OCCN4CCCC4)ccc23)cc1O[C@H]1CC[C@H](O)CC1

>  <Result>
> 10000 nM

$$$$
>  <Smiles Structure>
CN1CCC[C@@H]1COc1cc(-c2coc3cc(OCCN4CCCC4)ccc23)cc(OC(F)F)c1C(=O)NC1CC1

>  <Result>
> 10000 nM

$$$$
>  <Smiles Structure>
COc1cc(-c2coc3cc(-c4cnn(C5CC5)c4)ccc23)cc2c1C(=O)N(CC(F)(F)F)CC2

>  <Result>
53 nM

$$$$

Please find the next molecule below.
Request: Provide the documented IC50 with SIK3 kinase (aa59-365, Thermo Fisher) (Homo sapiens) as the system for CN1CC[C@H](COc2cc(-c3coc4cc(OCCN5CCCC5)ccc34)cc(OC(F)F)c2C(=O)NC2CC2)C1
Response: > 10000 nM

---

- Target Or Test System: SIK2 kinase (full length, Thermo Fisher) (Homo sapiens, UniProt Q9H0K1)
- Construct: SIK2 kinase (full length, Thermo Fisher); purchased Thermo Fisher
- Sequence (Q9H0K1 whole entry): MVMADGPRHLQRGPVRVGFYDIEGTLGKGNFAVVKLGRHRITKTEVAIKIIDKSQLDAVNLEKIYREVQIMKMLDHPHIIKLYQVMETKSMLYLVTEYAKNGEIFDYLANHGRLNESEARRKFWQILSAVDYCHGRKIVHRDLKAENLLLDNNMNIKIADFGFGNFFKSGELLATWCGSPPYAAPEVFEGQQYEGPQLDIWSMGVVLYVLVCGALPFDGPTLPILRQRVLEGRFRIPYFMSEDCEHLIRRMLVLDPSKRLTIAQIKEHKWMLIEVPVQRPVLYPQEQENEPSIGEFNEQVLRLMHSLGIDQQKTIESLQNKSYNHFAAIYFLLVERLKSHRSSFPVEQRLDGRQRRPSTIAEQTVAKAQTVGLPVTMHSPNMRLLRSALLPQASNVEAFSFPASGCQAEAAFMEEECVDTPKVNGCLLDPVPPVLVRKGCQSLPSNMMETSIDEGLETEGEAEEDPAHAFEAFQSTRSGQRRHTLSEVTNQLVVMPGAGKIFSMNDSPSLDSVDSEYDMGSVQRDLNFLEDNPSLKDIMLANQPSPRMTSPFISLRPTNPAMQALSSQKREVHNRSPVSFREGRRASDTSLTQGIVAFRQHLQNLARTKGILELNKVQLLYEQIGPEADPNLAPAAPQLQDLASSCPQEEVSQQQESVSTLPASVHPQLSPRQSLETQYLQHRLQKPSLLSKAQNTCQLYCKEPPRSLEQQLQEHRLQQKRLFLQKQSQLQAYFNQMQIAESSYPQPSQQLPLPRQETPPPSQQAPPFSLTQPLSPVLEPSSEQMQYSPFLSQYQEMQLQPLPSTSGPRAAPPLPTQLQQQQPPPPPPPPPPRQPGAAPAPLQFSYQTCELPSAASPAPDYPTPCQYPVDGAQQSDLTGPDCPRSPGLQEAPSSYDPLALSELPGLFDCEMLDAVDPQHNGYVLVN
- Assay Info: Biochemical activities determination for SIK2 protein (TR-FRET)
- Test Parameters: 80 uM ATP, 0.5 μM substrate
Simple rule here: IC50 less than 80 nM is Satisfied, otherwise Not satisfied.

>  <Compound>
COc1cc(-c2coc3cc(-c4cnn(C)c4)c(F)cc23)cc2c1C(=O)N(CC(F)(F)F)CC2

>  <Qualitative Label>
Satisfied

$$$$
>  <Compound>
CCc1nnc(-c2c(OC)cc(-c3coc4cc(-c5cnn(C)c5)ccc34)cc2OC)o1

>  <Qualitative Label>
Not satisfied

$$$$
>  <Compound>
CCn1cc(-c2ccc3c(-c4cc5c(c(OC)c4)C(=O)N(CC(F)(F)F)CC5)coc3c2)cn1

>  <Qualitative Label>
Satisfied

$$$$
>  <Compound>
O=C(NC1CC1)c1c(F)cc(-c2coc3cc(OCCN4CCCC4)ccc23)cc1OC(F)F

>  <Qualitative Label>
Not satisfied

$$$$
>  <Compound>
CN1CCC(n2cc(-c3ccc4c(-c5cc6c(c(OC(F)F)c5)C(=O)N(CC#N)CC6)coc4c3)cn2)C1 (stereo not shown)

>  <Qualitative Label>
Satisfied

$$$$
>  <Compound>
CCOc1cc(-c2coc3cc(OCCN4CCCC4)ccc23)cc(OC(F)F)c1C(=O)NC1CC1

>  <Qualitative Label>
Not satisfied

$$$$
>  <Compound>
COc1cc(-c2coc3cc(OCCN4CCCC4C(F)(F)F)ccc23)cc(OC(F)F)c1C(=O)N[C@@H]1C[C@@H]1F (stereo partly shown)

>  <Qualitative Label>
Not satisfied

$$$$
>  <Compound>
COc1cc(-c2coc3cc(-c4cnn(C(C)C)c4)ccc23)cc2c1C(=O)N(CC(F)(F)F)CC2

>  <Qualitative Label>
Satisfied

$$$$

Request: Determine if CN1CCC(n2cc(-c3ccc4c(-c5cc6c(c(OC(F)F)c5)C(=O)N(CC(F)(F)F)CC6)coc4c3)cn2)C1 (stereo not shown) shows IC50 strictly lower than 80 nM.
Response: Satisfied
